Target of assay: T1, human CD71 extracellular domain (human, UniProt P02786 89-760, biotinylated)
T1 construct: extracellular domain; also called hCD71; huCD71 ECD
T1 sequence (P02786 other isoform, or with tags, fused parts or gaps): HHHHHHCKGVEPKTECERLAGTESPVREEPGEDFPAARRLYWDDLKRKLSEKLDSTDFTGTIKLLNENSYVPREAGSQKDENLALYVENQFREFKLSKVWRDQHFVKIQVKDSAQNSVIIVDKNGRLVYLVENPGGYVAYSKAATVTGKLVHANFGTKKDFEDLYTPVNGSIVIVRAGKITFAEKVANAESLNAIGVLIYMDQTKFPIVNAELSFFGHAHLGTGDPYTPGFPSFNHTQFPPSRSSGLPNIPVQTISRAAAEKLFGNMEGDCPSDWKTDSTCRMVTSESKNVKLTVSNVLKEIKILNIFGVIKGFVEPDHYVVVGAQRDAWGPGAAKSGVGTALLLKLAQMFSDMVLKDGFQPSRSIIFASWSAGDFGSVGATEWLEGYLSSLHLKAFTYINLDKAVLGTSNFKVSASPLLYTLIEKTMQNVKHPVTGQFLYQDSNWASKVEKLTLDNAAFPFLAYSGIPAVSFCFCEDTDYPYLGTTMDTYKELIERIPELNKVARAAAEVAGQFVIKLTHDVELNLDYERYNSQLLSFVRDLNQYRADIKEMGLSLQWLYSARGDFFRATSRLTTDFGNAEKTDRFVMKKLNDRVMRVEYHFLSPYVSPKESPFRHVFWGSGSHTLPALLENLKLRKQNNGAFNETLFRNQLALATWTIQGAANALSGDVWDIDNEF
Assay details: solution ELISA screen (luminescence)
Measurement name: RLU (RLU)
Response body: numeric value in RLU, unit text excluded.

Please supply the value of reported RLU for the item SEQ ID NO 215 (designed binder, not shown: small tags and cut ends) MLPAPKNLVVSRVTEDSARLSWTAPDAAFDSFYIAYAEPRPDGEAIVLWVPGSERSYDLTGLKPGTEYSVLIHGVKGGLLSSPLIAEFTT
2.02e+06

Give a short answer stating reported RLU for SEQ ID NO 205 (designed binder, not shown: small tags and cut ends) MLPAPKNLVVSRVTEDSARLSWTAPDAAFDSFFIGYLEPQPPGEAILLGVPGSERSYDLTGLKPGTEYNVTIQGVKGGFPSMPLHPLVALFTT .
2.81e+06

Give the reported value of RLU for this record: SEQ ID NO 237 (designed binder, not shown: small tags and cut ends) MLPAPKNLVVSRVTEDSARLSWTAPDAAFDSFYIAYAEPRPDGEAIVLAVPGSERSYDLTGLKPGTEYSVLIHGVKGGLLSSPLYASFTT
4.58e+06

Name the recorded RLU of the item SEQ ID NO 224 (designed binder, not shown: small tags and cut ends) MLPAPKNLVVSRVTEDSARLSWTAPDAAFDSFYIAYAEPRPDGEAILLRVPGSERSYDLTGLKPGTEYSVLIHGVKGGLLSSPLVAEFTT in your answer.
3.55e+06

For SEQ ID NO 203 (designed binder, not shown: small tags and cut ends) MLPAPKNLVVSRVTEDSARLSWTAPDAAFDSFFIGYLEPQPPGEAIVLLVPGSERSYDLTGLKPGTEYNVTIQGVKGGFPSVPLAAFFTT , write its RLU.
2.38e+06

# return recorded RLU for input SEQ ID NO 225 (designed binder, not shown: small tags and cut ends) MLPAPKNLVVSRVTEDSARLSWTAPDAAFDSFYIAYAEPRPDGEAILLQVPGSERSYDLTGLKPGTEYSVLIHGVKGGLLSSPLSASFTT
4.06e+06

Quick one: give measured RLU for SEQ ID NO 232 (designed binder, not shown: small tags and cut ends) MLPAPKNLVVSRVTEDSARLSWTAPDAAFDSFFIGYLEPQPPGEAIYLDVPGSERSYDLTGLKPGTEYNVTIQGVKGGFPSTFTT
1.08e+06

Return RLU for the following binder: SEQ ID NO 233 (designed binder, not shown: small tags and cut ends) MLPAPKNLVVSRVTEDSARLSWTAPDAAFDSFYIAYAEPRPDGEAIQLFVPGSERSYDLTGLKPGTEYSVLIHGVKGGLLSSPLKAYFTT
772000

Provide RLU value for the following binder: SEQ ID NO 245 (designed binder, not shown: small tags and cut ends) MLPAPKNLVVSRVTEDSARLSWTAPDAAFDSFYIAYAEPRPDGEAIALWVPGSERSYDLTGLKPGTEYSVLIHGVKGGLLSSPLVASFTT
774000
